# System: Calf thymus DNA
# test: Displacement of Ethidium bromide from calf thymus DNA assessed as quenching constant value (Ksv)
# Format: nucleic-acid assay
# stated.conditions: Bos taurus
Kindly supply the reported KSV values for the records listed here.

stdin: Please state recorded KSV (tested on Calf thymus DNA) of CN1CCN(CCCNc2nc3cc([N+](=O)[O-])ccc3nc2NCc2ccc(-c3ccccc3)cc2)CC1
stdout: 2.8 10^4/M

stdin: Please state recorded KSV (tested on Calf thymus DNA) of CN(C)CCCNc1nc2cc([N+](=O)[O-])ccc2nc1NCc1cccc(-c2ccccc2)c1
stdout: 4.1 10^4/M

stdin: Please state recorded KSV (tested on Calf thymus DNA) of CN(C)CCCNc1nc2cc([N+](=O)[O-])ccc2nc1NCc1ccc2ccccc2c1
stdout: 6.5 10^4/M

stdin: Please state recorded KSV (tested on Calf thymus DNA) of CN(C)CCCCNc1nc2cc([N+](=O)[O-])ccc2nc1NCc1ccc(-c2ccccc2)cc1
stdout: 5 10^4/M

stdin: Please state recorded KSV (tested on Calf thymus DNA) of CN(C)CCCNc1nc2cc([N+](=O)[O-])ccc2nc1NCc1cccc(-c2ccc3ccccc3c2)c1
stdout: 3.1 10^4/M

Hello, the source for this data is ChEMBL document CHEMBL5512652, in case you need it.
